# System: MS2 coat protein
# protocolDetails: apparent KD of MS2 coat protein; higher = weaker reporter binding
# condition: Eterna round: R107; input ligand: arginine 13.2 mM
Rule: rule met for apparent KD of MS2 coat protein not less than 80 nM, rule not met for anything less.

AACGUAUACAGAAGGAGCGUGAUUUGUGUUACUCAUUCAUAUACAUGAGGAUCACCCAUGUCACAGGUAGGUCGCUGUAUUCGUA [JR_ExcArginiB_Sub022]: rule not met
GUAGCGACGACGGCCGCCACUCACAGGUGAGGGUAGACCAACCUUCACAUGAGGAUCACCCAUGUGAGGACCGGGUUGUCGCUAC [#12 Exclusion Tryptophan B]: rule not met
GCGAUGGAGCGAAGGAGCGUGCUGGUACAUGAGGAUCACCCAUGUGAACCGCAGCGCUAAGCACAGGUAGGUCGCGCUCCAUCGC [EAB NP+V+V2 #14]: rule met
UUAUAAGUACCGGUCCUCAGAUCCUCAUGACGAGGACCGGUACGGCCGCCACUCGAAACAUGAGGAUCACCCAUGUAAUAAUAAU [Brourdmod05]: rule not met
AGCGUAUAGACGGAUACCAGCGCCGAUUAACAUGAGGAUCACCCAUGUAGUGUGGGUGGACGCCCUUGGCAGCCGAGUAUAGGUA [#07 Exclusion-TheophyllineB]: rule met
GUUUAGAGCUCGGCCGCCACUCAAACAUGAGGAUCACCCAUGUAAAACAUGAGGAUCACCCAUGUGAGGACCGGGAGAAAUAAGA [Exclusion Tryptophan B GF7]: rule met
AUUAAUUGUCGUGAUACCAGACAUACAUGAGGAUCACCCAUGUUAAGUAACAUUUUUUAUGUCCCUUGGCAGCACUUUUUAAUUA [JR_Nu_SSTheophyB_Sub017]: rule not met

Continue with the next sequence.
input: Say whether CGGCCCUCACCUGAGGAUCACCCGGGUGAUACCAGCCUGGAAACAGGCCCUUGGCAGCACCAGGUCAUCAAAGAUGACCAAGCCG [TheoAX 26 #OpenEnded #AlternativeMS2] shows apparent KD of MS2 coat protein of 80 nM or more.
output: rule not met
